Origin of the recorded values: ChEMBL document CHEMBL6074667

test: Apparent permeability across apical to basolateral side in low efflux MDCK cells assessed as drug recovery at 10 uM incubated for 2 hrs by LC-MS analysis; assay type: ADME, cell-based, Canis lupus familiaris; settings: dog, read-out: Drug recovery
Readout type: recovery at 2 h, 10 µM (%)
Give bare numbers, in %.

Guide cases for recovery at 2 h, 10 µM, answers given:
CCN1CCCC[C@@H]1COc1ccc2c(c1)CN(C1CCC(=O)NC1=O)C2=O (some centres undefined) :: 95
CCN1C[C@H](Oc2ccc3c(c2)CN(C2CCC(=O)NC2=O)C3=O)CC[C@@H]1C (some centres undefined) :: 75
C[C@@H](Oc1ccc2c(c1)CN(C1CCC(=O)NC1=O)C2=O)[C@H]1CCCCN1C (some centres undefined) :: 66

Turning now to a further molecule:
If you can, please state the reported recovery at 2 h, 10 µM value of CCN1C[C@H](C)C[C@@H](Oc2ccc3c(c2)CN(C2CCC(=O)NC2=O)C3=O)C1 (stereo in doubt; 10) . 84

---

Answer each item with its documented Vd.
assay: Volume of distribution at steady state in C57BL/6 mouse at 1 mg/kg, iv; type: ADME, organism-based; conditions: in vivo, read-out: Vdss
Numbers only, in L/kg.

Sample answers from the record:
C[C@@H](Oc1ccc2c(c1)CN(C1CCC(=O)NC1=O)C2=O)[C@H]1CCCCN1C (some centres undefined) :: 2.9
CCN1CCCC[C@@H]1COc1ccc2c(c1)CN(C1CCC(=O)NC1=O)C2=O (some centres undefined) :: 2.2
CCN1C[C@H](Oc2ccc3c(c2)CN(C2CCC(=O)NC2=O)C3=O)CC[C@@H]1C (some centres undefined) :: 4.4

For the compound CCN1C[C@H](C)C[C@@H](Oc2ccc3c(c2)CN(C2CCC(=O)NC2=O)C3=O)C1 (stereo in doubt; 10) , what Vd is on record? 2.8

---

biological target: Cereblon/Ikaros (Homo sapiens, UniProt Q96SW2+Q13422); assay: Molecular glue activity at CRBN/HiBiT-tagged IKZF1 (unknown origin) expressed in human GripTite 293 MSR cells assessed as induction of […] incubated for 20 hrs by Nano-Glo HiBiT-Lytic reagent based luminescence plate reader analysis relative to control; format: cell-based; design: concentration or dose not given beside the values
Would you mind telling me the reported Activity of each entry?

CCN1C[C@H](Oc2ccc3c(c2)CN(C2CCC(=O)NC2=O)C3=O)CC[C@@H]1C (stereo not given in full) :: 10%
C[C@@H](Oc1ccc2c(c1)CN(C1CCC(=O)NC1=O)C2=O)[C@H]1CCCCN1C (stereo not given in full) :: < 11%
CCN1C[C@@H](C)C[C@@H](Oc2ccc3c(c2)CN(C2CCC(=O)NC2=O)C3=O)C1 (mixture of isomers) :: < 10%
CCN1CCC[C@H](Oc2ccc3c(c2)CN(C2CCC(=O)NC2=O)C3=O)C1 (stereo not given in full) :: < 10%
CCN1C[C@H](C)C[C@@H](Oc2ccc3c(c2)CN(C2CCC(=O)NC2=O)C3=O)C1 (stereo in doubt; 10) :: < 10%
CCN1C[C@H](Oc2ccc3c(c2)CN(C2CCC(=O)NC2=O)C3=O)CC[C@H]1C (stereo not given in full) :: < 10%
CCN1CCC2(CC2)[C@@H](Oc2ccc3c(c2)CN(C2CCC(=O)NC2=O)C3=O)C1 (stereo not given in full) :: < 10%
CCN1CCCC[C@@H]1COc1ccc2c(c1)CN(C1CCC(=O)NC1=O)C2=O (stereo not given in full) :: < 10%
CCN1C[C@H](C)C[C@@H](Oc2ccc3c(c2)CN(C2CCC(=O)NC2=O)C3=O)C1 (mixture of isomers) :: < 10%

Here is another compound to look at.
What value of measured Activity is listed for CCN1CCC[C@@H](Oc2ccc3c(c2)CN(C2CCC(=O)NC2=O)C3=O)C1 (stereo not given in full) ? < 10%

---

Provide the recorded Papp A→B at 2 h, 10 µM for the entries that follow.
experiment: Apparent permeability across apical to basolateral side in low efflux MDCK cells at 10 uM incubated for 2 hrs by LC-MS analysis; format: ADME, cell-based, Canis lupus familiaris; conditions: dog
Give bare numbers, in nm/s.

I need Papp A→B at 2 h, 10 µM for every entry listed below, if you could help.
1. CCN1CCCC[C@@H]1COc1ccc2c(c1)CN(C1CCC(=O)NC1=O)C2=O (some centres undefined)
2. CCN1C[C@H](C)C[C@@H](Oc2ccc3c(c2)CN(C2CCC(=O)NC2=O)C3=O)C1 (stereo in doubt; 10)

1: 11; 2: 5

Return reported Papp A→B at 2 h, 10 µM values for all items listed beneath this line.
1. CCN1C[C@H](Oc2ccc3c(c2)CN(C2CCC(=O)NC2=O)C3=O)CC[C@@H]1C (some centres undefined)
2. C[C@@H](Oc1ccc2c(c1)CN(C1CCC(=O)NC1=O)C2=O)[C@H]1CCCCN1C (some centres undefined)

3
3.7

---

I'd be grateful if you could share measured pEC50 for these entries.
biological target: Protein cereblon/Protein Wiz (Homo sapiens, UniProt O95785+Q96SW2); experiment: Molecular glue activity at CRBN/WIZ in human CD34-positive derived primary erythroblast cells assessed as increase in fetal hemoglobin positive cells in CD71+ CD235a+ subpopulation measured after 7 days by flow cytometric analysis
Sequence (Q96SW2 whole entry): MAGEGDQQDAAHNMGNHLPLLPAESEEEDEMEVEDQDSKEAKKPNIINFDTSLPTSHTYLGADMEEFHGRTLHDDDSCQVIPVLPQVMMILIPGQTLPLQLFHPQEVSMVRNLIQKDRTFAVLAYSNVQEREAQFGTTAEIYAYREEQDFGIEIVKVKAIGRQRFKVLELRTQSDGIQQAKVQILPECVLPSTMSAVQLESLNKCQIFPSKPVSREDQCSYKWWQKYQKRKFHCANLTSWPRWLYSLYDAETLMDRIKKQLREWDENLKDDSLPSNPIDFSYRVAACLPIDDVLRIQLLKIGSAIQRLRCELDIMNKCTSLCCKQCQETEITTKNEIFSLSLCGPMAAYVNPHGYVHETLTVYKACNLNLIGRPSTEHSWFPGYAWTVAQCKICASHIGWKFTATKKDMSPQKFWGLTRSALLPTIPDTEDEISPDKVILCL
Sequence (O95785 whole entry): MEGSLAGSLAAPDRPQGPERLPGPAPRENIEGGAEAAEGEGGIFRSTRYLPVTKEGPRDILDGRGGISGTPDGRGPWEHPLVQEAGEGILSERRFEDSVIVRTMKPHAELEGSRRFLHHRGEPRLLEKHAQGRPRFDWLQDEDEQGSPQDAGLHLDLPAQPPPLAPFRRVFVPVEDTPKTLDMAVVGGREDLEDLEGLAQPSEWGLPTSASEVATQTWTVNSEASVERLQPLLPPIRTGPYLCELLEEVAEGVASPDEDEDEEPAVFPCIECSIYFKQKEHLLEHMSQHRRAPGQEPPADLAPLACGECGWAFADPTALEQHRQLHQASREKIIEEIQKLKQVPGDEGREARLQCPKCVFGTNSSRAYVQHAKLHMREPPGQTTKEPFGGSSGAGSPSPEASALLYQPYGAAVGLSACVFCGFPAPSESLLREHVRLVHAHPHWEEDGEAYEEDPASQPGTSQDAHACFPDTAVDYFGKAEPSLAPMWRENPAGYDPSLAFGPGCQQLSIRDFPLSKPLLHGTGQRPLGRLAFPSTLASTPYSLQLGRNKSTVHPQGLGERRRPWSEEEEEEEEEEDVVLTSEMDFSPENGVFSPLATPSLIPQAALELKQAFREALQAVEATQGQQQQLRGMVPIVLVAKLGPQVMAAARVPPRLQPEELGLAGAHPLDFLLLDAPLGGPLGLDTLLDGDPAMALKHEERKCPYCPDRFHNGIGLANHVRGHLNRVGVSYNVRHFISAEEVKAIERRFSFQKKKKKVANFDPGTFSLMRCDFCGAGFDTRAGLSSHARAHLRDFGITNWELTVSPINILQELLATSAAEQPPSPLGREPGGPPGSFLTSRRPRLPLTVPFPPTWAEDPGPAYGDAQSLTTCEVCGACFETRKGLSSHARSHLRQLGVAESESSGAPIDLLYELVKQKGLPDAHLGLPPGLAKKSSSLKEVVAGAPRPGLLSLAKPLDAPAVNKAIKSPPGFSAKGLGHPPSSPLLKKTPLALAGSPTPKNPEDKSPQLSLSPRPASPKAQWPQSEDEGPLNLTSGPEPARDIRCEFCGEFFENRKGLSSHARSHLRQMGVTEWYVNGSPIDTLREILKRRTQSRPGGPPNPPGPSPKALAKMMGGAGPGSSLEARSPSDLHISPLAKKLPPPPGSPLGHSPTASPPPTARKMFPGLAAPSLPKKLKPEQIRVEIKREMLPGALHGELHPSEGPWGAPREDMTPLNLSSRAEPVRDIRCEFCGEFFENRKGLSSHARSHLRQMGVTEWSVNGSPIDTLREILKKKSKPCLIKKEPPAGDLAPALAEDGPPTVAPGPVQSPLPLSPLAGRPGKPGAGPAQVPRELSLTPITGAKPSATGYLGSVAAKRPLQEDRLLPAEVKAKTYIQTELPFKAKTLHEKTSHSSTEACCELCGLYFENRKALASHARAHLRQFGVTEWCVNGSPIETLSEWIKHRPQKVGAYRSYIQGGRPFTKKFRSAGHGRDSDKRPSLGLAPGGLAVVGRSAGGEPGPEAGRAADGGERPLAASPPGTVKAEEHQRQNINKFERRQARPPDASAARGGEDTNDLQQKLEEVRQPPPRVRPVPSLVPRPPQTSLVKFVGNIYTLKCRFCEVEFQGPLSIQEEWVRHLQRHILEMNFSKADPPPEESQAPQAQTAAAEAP
Answers are plain numbers, as −log10 of the molar value.

CCN1C[C@H](Oc2ccc3c(c2)CN(C2CCC(=O)NC2=O)C3=O)CC[C@@H]1C (some centres not stated) :: 7.11

Returns the measured pEC50 for the input compound. Input: CCN1C[C@H](C)C[C@@H](Oc2ccc3c(c2)CN(C2CCC(=O)NC2=O)C3=O)C1 (stereo in doubt; 10) 7.40

---

assay: Bioavailability last in C57BL/6 mouse; format: ADME, organism-based; conditions: in vivo
Would you kindly list bioavailability for each of these compounds?
Numbers only, in %.

Batch lookup, bioavailability per entry.
1. CCN1CCCC[C@@H]1COc1ccc2c(c1)CN(C1CCC(=O)NC1=O)C2=O (some centres undefined)
2. CCN1C[C@H](Oc2ccc3c(c2)CN(C2CCC(=O)NC2=O)C3=O)CC[C@@H]1C (some centres undefined)

[13, 8.5]

Kindly give each listed record's bioavailability.
1. C[C@@H](Oc1ccc2c(c1)CN(C1CCC(=O)NC1=O)C2=O)[C@H]1CCCCN1C (some centres undefined)
2. CCN1C[C@H](C)C[C@@H](Oc2ccc3c(c2)CN(C2CCC(=O)NC2=O)C3=O)C1 (stereo in doubt; 10)

1. 2.7
2. 23

---

Could you please report measured microsomal CLint for the items listed next?
assay: Intrinsic clearance in mouse liver microsomes; type: ADME, Microsome; settings: read-out: CLH

Worked cases, answers included:
C[C@@H](Oc1ccc2c(c1)CN(C1CCC(=O)NC1=O)C2=O)[C@H]1CCCCN1C (some centres undefined) :: < 25 µL/min/mg
CCN1C[C@H](C)C[C@@H](Oc2ccc3c(c2)CN(C2CCC(=O)NC2=O)C3=O)C1 (stereo in doubt; 10) :: < 10 µL/min/mg
CCN1CCCC[C@@H]1COc1ccc2c(c1)CN(C1CCC(=O)NC1=O)C2=O (some centres undefined) :: < 25 µL/min/mg

Please give the measured microsomal CLint for this compound: CCN1C[C@H](Oc2ccc3c(c2)CN(C2CCC(=O)NC2=O)C3=O)CC[C@@H]1C (some centres undefined) < 25 µL/min/mg

---

Consider the following molecules; for each one, report its fraction unbound.
test: Protein binding in mouse plasma; assay type: ADME, cell-free; conditions: read-out: PPB (converted)

# count of solved cases: 3
CCN1C[C@H](Oc2ccc3c(c2)CN(C2CCC(=O)NC2=O)C3=O)CC[C@@H]1C (some centres undefined) :: 0.77
CCN1C[C@H](C)C[C@@H](Oc2ccc3c(c2)CN(C2CCC(=O)NC2=O)C3=O)C1 (stereo in doubt; 10) :: > 0.8
C[C@@H](Oc1ccc2c(c1)CN(C1CCC(=O)NC1=O)C2=O)[C@H]1CCCCN1C (some centres undefined) :: > 0.8

Here is the next item to consider.
Bench note: what fraction unbound did CCN1CCCC[C@@H]1COc1ccc2c(c1)CN(C1CCC(=O)NC1=O)C2=O (some centres undefined) show? > 0.8

---

biological target: Protein cereblon/Sal-like protein 4 (Homo sapiens, UniProt Q96SW2+Q9UJQ4); assay: Molecular glue activity at CRBN/HiBiT-tagged SALL4 (unknown origin) expressed in human GripTite 293 MSR cells assessed as induction of SALL4 degradation incubated for 20 hrs by Nano-Glo HiBiT-Lytic reagent based luminescence plate reader analysis; format: cell-based
Sequence (Q96SW2 whole entry): as the sequence (Q96SW2 whole entry) above
Sequence (Q9UJQ4 whole entry): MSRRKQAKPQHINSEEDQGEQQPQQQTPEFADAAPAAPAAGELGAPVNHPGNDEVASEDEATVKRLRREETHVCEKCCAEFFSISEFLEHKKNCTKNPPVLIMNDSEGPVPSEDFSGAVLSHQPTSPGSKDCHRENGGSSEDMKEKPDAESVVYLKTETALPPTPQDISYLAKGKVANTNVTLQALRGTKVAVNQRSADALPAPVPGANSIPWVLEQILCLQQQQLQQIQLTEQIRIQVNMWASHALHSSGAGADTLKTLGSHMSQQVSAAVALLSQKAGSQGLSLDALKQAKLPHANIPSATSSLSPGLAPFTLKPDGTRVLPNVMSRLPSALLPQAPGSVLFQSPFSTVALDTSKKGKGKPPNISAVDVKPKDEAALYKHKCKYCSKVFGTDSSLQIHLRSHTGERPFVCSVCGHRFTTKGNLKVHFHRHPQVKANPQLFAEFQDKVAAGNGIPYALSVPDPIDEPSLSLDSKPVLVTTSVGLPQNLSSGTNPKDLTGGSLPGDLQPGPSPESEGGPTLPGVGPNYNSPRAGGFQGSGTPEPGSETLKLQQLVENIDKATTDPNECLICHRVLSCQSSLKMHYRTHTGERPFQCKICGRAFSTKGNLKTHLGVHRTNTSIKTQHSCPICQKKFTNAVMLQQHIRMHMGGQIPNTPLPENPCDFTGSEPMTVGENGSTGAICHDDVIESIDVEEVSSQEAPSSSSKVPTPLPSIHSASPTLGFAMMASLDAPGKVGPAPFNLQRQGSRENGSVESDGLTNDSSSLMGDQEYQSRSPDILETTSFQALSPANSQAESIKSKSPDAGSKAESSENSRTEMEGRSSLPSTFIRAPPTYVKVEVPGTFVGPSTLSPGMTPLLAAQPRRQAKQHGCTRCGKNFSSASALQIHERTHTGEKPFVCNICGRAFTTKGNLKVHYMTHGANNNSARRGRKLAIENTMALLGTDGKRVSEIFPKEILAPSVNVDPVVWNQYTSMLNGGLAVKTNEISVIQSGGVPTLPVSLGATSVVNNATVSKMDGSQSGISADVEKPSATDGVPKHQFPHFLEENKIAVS
Please provide measured DC50 for the entries that follow.

Examples with their reported DC50 follow.
CCN1CCCC[C@@H]1COc1ccc2c(c1)CN(C1CCC(=O)NC1=O)C2=O (stereo partly drawn) :: 3.8 µM
CCN1C[C@H](Oc2ccc3c(c2)CN(C2CCC(=O)NC2=O)C3=O)CC[C@H]1C (stereo partly drawn) :: > 50 µM
CCN1C[C@H](Oc2ccc3c(c2)CN(C2CCC(=O)NC2=O)C3=O)CC[C@@H]1C (stereo partly drawn) :: > 50 µM
CCN1C[C@H](C)C[C@@H](Oc2ccc3c(c2)CN(C2CCC(=O)NC2=O)C3=O)C1 (mixture of isomers) :: > 50 µM
CCN1CCC[C@H](Oc2ccc3c(c2)CN(C2CCC(=O)NC2=O)C3=O)C1 (stereo partly drawn) :: > 50 µM
CCN1CCC[C@@H](Oc2ccc3c(c2)CN(C2CCC(=O)NC2=O)C3=O)C1 (stereo partly drawn) :: > 50 µM

List the reported DC50 of each compound below.
1. CCN1CCC2(CC2)[C@@H](Oc2ccc3c(c2)CN(C2CCC(=O)NC2=O)C3=O)C1 (stereo partly drawn)
2. CCN1C[C@@H](C)C[C@@H](Oc2ccc3c(c2)CN(C2CCC(=O)NC2=O)C3=O)C1 (mixture of isomers)

1: > 50 µM; 2: > 50 µM
